- Test system: Fibroblast
- assay name: Incucyte cell viability with human fibroblast; note: unitless GR value; below 1 slowed growth and below 0 cell loss
- Format: toxicity, cell-based
- run parameters: 6 h, 10 µM, compound concentration 10 uM, replicate number 1
test readout: Growth Rate
Answer as a number with no unit attached.

{"molecule": "C#Cc1cnc2[nH]cc(-c3cccc4c3CCN4C(=O)[C@@H]3CCCN3C#N)c2c1", "target entity": "Fibroblast", "meas value": -0.83}
{"molecule": "CCc1cnn2c(NCc3ccc[n+]([O-])c3)cc(N3CCCCC3CCO)nc12 (centres undefined)", "target entity": "Fibroblast", "meas value": 0.11}
{"molecule": "O=C1COc2cc(C(=O)N(Cc3ccc(C(=O)Nc4ccncn4)cc3)C3CC3)ccc2N1", "target entity": "Fibroblast", "meas value": 0.36}

With those in mind, consider the next molecule.
*Q* So what does the record say about Growth Rate for O=C(Nc1ccc(N2CCC(C(=O)N3CCOCC3)CC2)cc1)c1cnc(Oc2ccccc2)nc1 ?
*A* 0.98

----------
- System: HEK-293T
- assay name: Incucyte cell viability with HEK293T; note: unitless GR value; below 1 slowed growth and below 0 cell loss
- Assay type: toxicity, cell-based
- run parameters: human, 12 h, 10 µM, compound concentration 10 uM, replicate number 1
test readout: Growth Rate
Could you respond with only the numeric value?

{"compound": "Cc1c(NC(=O)c2ccc(C(C)(C)C)cc2)cccc1-c1cn(C)c(=O)c(Nc2ccc(C(=O)N3CCOCC3)cc2)n1", "Growth Rate": 0.38}

*Q* Record request: Growth Rate value, item Cc1cc(Nc2ncc(Cl)c(Nc3ccccc3S(=O)(=O)C(C)C)n2)c(OC(C)C)cc1C1CCNCC1 [CERITINIB]
*A* -0.6

*Q* Item: Cc1ccc(NS(=O)(=O)c2ccc3c(c2)C2C=CCC2C(c2ccc(C(=O)O)cc2)N3)cc1C (stereo not given)
*A* 0.89

*Q* // next record COc1ccc(CCN(C)CCCC(C#N)(c2cc(OC)c(OC)c(OC)c2)C(C)C)cc1OC.Cl (stereo not given) [GALLOPAMIL HYDROCHLORIDE]
*A* 0.9

*Q* Please do the same for Cc1cn(CCN2CCN(c3ccccc3-c3cc(C#N)cc(C(=O)NCCCN4CCCC4)c3)CC2)c2ccccc12 as well.
*A* -0.46

----------
- Tested on: HEK-293T
- assay name: Incucyte cell viability with HEK293T; note: unitless GR value; below 1 slowed growth and below 0 cell loss
- Assay type: toxicity, cell-based
- run parameters: human, 18 h, 10 µM, compound concentration 10 uM, replicate number 1
test readout: Growth Rate
Lab note: jot down the number only; don't add units.

Consider the worked cases shown below.
{"molecule": "C[C@@H]1COCCN1c1cc(=O)n2c(n1)N(Cc1cncc(Cl)c1)[C@H](C(F)(F)F)CC2", "target entity": "HEK-293T", "meas value": 0.39}
{"molecule": "CCNc1ccc(-c2nn(-c3ccccc3C)c3c2C(C)Cc2nc(NC(=O)OC)sc2-3)cn1.O=C(O)C(F)(F)F (stereo unspecified)", "target entity": "HEK-293T", "meas value": -0.23}
{"molecule": "CCc1cnn2c(NCc3ccc[n+]([O-])c3)cc(N3CCCCC3CCO)nc12 (stereo unspecified)", "target entity": "HEK-293T", "meas value": -0.2}
{"molecule": "COc1cc(/C=C(\\C#N)C(=O)Nc2nnc(C(F)(F)F)s2)ccc1OCc1ccc(C(F)(F)F)cc1C(F)(F)F", "target entity": "HEK-293T", "meas value": 0.91}
{"molecule": "O=C1NCCSc2c1sc1ccc(O)cc21", "target entity": "HEK-293T", "meas value": -0.14}

*Q* Consider the molecule CC(C)(C)NC(=O)c1cncn1C1CCN(c2ccc(-c3nnc(C(F)(F)F)o3)cn2)CC1 and give its measured Growth Rate.
*A* 0.18

*Q* Request: O=C(NS(=O)(=O)N1CCC1)c1cc(C2CC2)c(OCC23CC4CC(CC(C4)C2)C3)cc1F
*A* 0.87

*Q* Another molecule to check: C=CC[C@@H]1/C=C(\C)C[C@H](C)C[C@H](OC)[C@H]2O[C@@](O)(C(=O)C(=O)N3CCCC[C@H]3C(=O)O[C@H](/C(C)=C/[C@@H]3CC[C@@H](O)[C@H](OC)C3)[C@H](C)[C@@H](O)CC1=O)[C@H](C)C[C@@H]2OC.O
*A* 0.78

*Q* Request: COc1c(C(=O)/C=C/c2ccccc2)c(O)c(OC)c2occc12
*A* 0.86

*Q* Further, for CCS(=O)(=O)Nc1cccc(Oc2cc(F)cc(Nc3ccc(I)cc3F)c2NS(=O)(=O)C2CC2)c1 ?
*A* 0.6

----------
- Test system: U2OS
- assay name: Incucyte cell viability with U2OS; note: unitless GR value; below 1 slowed growth and below 0 cell loss
- Format: toxicity, cell-based
- run parameters: human, 6 h, 10 µM, compound concentration 10 uM, replicate number 2
test readout: Growth Rate
Lab note: jot down the number only; don't add units.

For orientation, consider the following solved cases.
{"compound": "CC(Sc1nc2c(cnn2-c2cccc(Cl)c2)c(=O)[nH]1)C(N)=O (stereo unspecified)", "Growth Rate": 0.38}
{"compound": "COc1cc2ncnc(Nc3ccc(Oc4ccccc4)cc3C)c2cc1OC.Cl", "Growth Rate": 0.35}
{"compound": "CCS(=O)(=O)c1ccc(OC)c(Nc2ncc(-c3cccc(F)c3)o2)c1 [GW621970X]", "Growth Rate": 0.74}
{"compound": "CN(C)CCCNc1ccnc(Nc2cccc(Cl)c2)n1", "Growth Rate": 0.82}
{"compound": "CCS(=O)(=O)Nc1cccc(Oc2cncc(Nc3ccc(I)cc3F)c2C(N)=O)c1", "Growth Rate": 0.62}

*Q* Give its Growth Rate value. Item: O=C(Nc1ccc(-n2nc(C(F)(F)F)cc2C(F)(F)F)cc1)c1ccncc1F
*A* 0.41

*Q* Then what about the compound Cc1ncsc1-c1ccc(CNC(=O)[C@@H]2C[C@@H](O)CN2C(=O)[C@@H](NC(=O)CCCCNC(=O)c2ccc(-c3ccc(N4CCN(C)CC4)c(NC(=O)c4c[nH]c(=O)cc4C(F)(F)F)c3)cc2)C(C)(C)C)cc1 ?
*A* 0.89

*Q* Please do the same for CC(C)NC(=O)[C@H]1CCC[C@H]1Nc1nc(Nc2ccc(C(=O)N(C)C3CCN(C)CC3)cc2)ncc1Cl as well.
*A* 0.48

*Q* What do we get for CN1CCN(c2ccc(-n3cc(-c4ccncc4OCC4CCNCC4)cn3)cc2)CC1 ?
*A* 0.51

*Q* Here is the next compound: Clc1ccccc1C(c1ccccc1)(c1ccccc1)n1cccn1
*A* 0.65

*Q* And what about the compound CC(C)(C)S(=O)(=O)c1ccc2nccc(Nc3n[nH]c4ccc(F)cc34)c2c1 ?
*A* 0.2

*Q* Another compound to check: Cn1cnc(Cn2ccc3ccc(CNCc4[nH]c5ccccc5c4[C@@H]4NC(=O)c5ccc(O)cc54)cc32)c1
*A* 0.95

*Q* Query Cl.Cl.N=C(N)NCCC[C@H](NC(=O)CC1(CC(=O)N2CCN(C3c4ccccc4NC(=O)c4ccccc43)CC2)CCCC1)C(=O)NCCn1c(=O)n(-c2ccccc2)n(-c2ccccc2)c1=O (stereo partly specified) next
*A* 0.78

*Q* Further, for c1cc(-c2cnn3cc(-c4ccc(N5CCNCC5)cc4)cnc23)c2cccnc2c1 ?
*A* -0.62

*Q* Now consider C=CC(=O)Nc1cccc(C)c1Nc1ncc2cc(-c3c(Cl)c(OC)cc(OC)c3Cl)ccc2n1 .
*A* 0.31

*Q* How about this compound: COc1cc(C(=O)NC2CCN(C)CC2)ccc1Nc1ncc2c(n1)N(C1CCCC1)CC(F)(F)C(=O)N2C
*A* 0.18

*Q* Please give the result for C=CC(=O)Nc1ccc(C(=O)Nc2n[nH]c3c2CN(C(=O)N[C@H](CN(C)C)c2ccccc2)C3(C)C)cc1 too.
*A* 1

*Q* Then CC(C)(c1ccc(OCc2cccc(COc3ccc(C(=N)N)cc3)c2)cc1)c1ccc(O[C@@H]2O[C@H](C(=O)O)[C@@H](O)[C@H](O)[C@H]2O)cc1.O=C(O)C(F)(F)F ?
*A* 0.56

*Q* Again, but for Cl.Cl.c1ccc2c(-c3cnn4cc(-c5ccc(N6CCNCC6)cc5)cnc34)ccnc2c1
*A* -0.64

*Q* One more compound: Cc1csc(-c2nnc(Nc3ccc(Oc4ncccc4-c4ccnc(N)n4)cc3)c3ccccc23)c1
*A* 0.9

*Q* Next: Cc1csc(S(=O)(=O)N(CC(C)C)c2cc3c(cc2OCc2ccc(C(=O)O)cc2)CCC3)n1
*A* 0.87

----------
- System: HEK-293T
- assay name: Incucyte cell viability with HEK293T; note: unitless GR value; below 1 slowed growth and below 0 cell loss
- Type: toxicity, cell-based
- run parameters: human, 24 h, 10 µM, compound concentration 10 uM, replicate number 1
test readout: Growth Rate
// return just the number, without any unit appended

Use the examples below as a reference point.
{"molecule": "Cn1cc(-c2ccc(-c3cncc(Cl)c3N3CCC4(CCNC4=O)CC3)cc2)cn1", "target entity": "HEK-293T", "Growth Rate": 0.5}
{"molecule": "Cc1cc(C(C#N)c2ccc(Cl)cc2)c(Cl)cc1NC(=O)c1cc(I)cc(I)c1O (centres undefined)", "target entity": "HEK-293T", "Growth Rate": 0.89}
{"molecule": "CN[C@@H](C)C(=O)N[C@H]1CCCC[C@H]2CC[C@@H](C(=O)N[C@@H](c3ccccc3)c3cn(CCCCc4ccc(CCCCn5cc([C@@H](NC(=O)[C@@H]6CC[C@@H]7CCCC[C@H](NC(=O)[C@H](C)NC)C(=O)N76)c6ccccc6)nn5)cc4)nn3)N2C1=O", "target entity": "HEK-293T", "Growth Rate": 0.65}

Shift focus to the following entry.
*Q* What does the data say about its Growth Rate? Entry: CC(CNS(=O)(=O)C(C)C)c1ccc(-c2ccc(C#N)cc2)cc1 (centres undefined)
*A* 0.05
